Numbers sourced from ChEMBL document CHEMBL1142822.

MEASURED_ON: Transient receptor potential cation channel subfamily V member 1 (Rattus norvegicus)
Sequence (O35433 whole entry): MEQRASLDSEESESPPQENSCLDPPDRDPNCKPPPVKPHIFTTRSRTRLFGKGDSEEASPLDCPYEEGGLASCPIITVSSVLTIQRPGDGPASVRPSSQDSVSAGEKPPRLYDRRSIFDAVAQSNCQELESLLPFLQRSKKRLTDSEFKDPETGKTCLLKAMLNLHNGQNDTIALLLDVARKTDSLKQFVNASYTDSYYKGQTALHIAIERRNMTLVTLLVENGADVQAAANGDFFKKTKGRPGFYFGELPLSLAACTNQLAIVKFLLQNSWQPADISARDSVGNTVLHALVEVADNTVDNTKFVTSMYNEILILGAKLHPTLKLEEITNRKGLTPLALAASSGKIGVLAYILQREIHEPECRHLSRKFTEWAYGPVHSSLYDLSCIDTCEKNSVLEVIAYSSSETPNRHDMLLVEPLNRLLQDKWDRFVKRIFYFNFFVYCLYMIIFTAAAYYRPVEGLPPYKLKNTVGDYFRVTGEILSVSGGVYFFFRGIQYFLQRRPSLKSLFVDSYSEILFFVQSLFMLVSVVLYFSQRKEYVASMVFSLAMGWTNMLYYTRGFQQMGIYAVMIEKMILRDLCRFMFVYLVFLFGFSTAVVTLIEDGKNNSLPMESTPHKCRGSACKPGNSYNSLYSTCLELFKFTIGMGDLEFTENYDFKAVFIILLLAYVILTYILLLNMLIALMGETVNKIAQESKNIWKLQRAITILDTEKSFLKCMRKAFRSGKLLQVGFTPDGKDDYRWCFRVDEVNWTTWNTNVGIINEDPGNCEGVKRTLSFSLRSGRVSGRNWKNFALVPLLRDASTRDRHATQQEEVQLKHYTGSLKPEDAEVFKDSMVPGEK
EXPERIMENTAL_DETAILS: In vitro binding affinity for rat TRPV1 expressed in CHO cells using [3H]-RTX
Assay type: cell-based
# log10 Ki values compiled below
REPORTED_ENDPOINT: log10 Ki (log10 of the value in nM)

{"columns": ["MOLECULE", "MEASURED_ON", "log10 Ki"],
 "data": [
  ["CC(C)(C)c1ccc(C/N=C(\\S)NCc2ccc(NS(=O)(=O)CCN)cc2)cc1", "Transient receptor potential cation channel subfamily V member 1 (Rattus norvegicus)", 3.67],
  ["CC(C)(C)c1ccc(C/N=C(\\S)NCc2ccc(NS(C)(=O)=O)c(O)c2)cc1", "Transient receptor potential cation channel subfamily V member 1 (Rattus norvegicus)", 2.88],
  ["CC(C)(C)c1ccc(C/N=C(\\S)NCc2ccc(NS(C)(=O)=O)c(Cl)c2)cc1", "Transient receptor potential cation channel subfamily V member 1 (Rattus norvegicus)", 3.06],
  ["CSc1cccc(C/N=C(\\S)NCc2ccc(C(C)(C)C)cc2)c1", "Transient receptor potential cation channel subfamily V member 1 (Rattus norvegicus)", 2.76],
  ["CC(C)(C)c1ccc(C/N=C(\\S)NCc2cccc(NS(C)(=O)=O)c2)cc1", "Transient receptor potential cation channel subfamily V member 1 (Rattus norvegicus)", 3.78],
  ["CC(C)Oc1cc(C/N=C(\\S)NCc2ccc(C(C)(C)C)cc2)ccc1NS(C)(=O)=O", "Transient receptor potential cation channel subfamily V member 1 (Rattus norvegicus)", 3.91],
  ["CC(C)(C)c1ccc(C/N=C(\\S)NCc2ccc(NS(C)(=O)=O)c([N+](=O)[O-])c2)cc1", "Transient receptor potential cation channel subfamily V member 1 (Rattus norvegicus)", 3.11],
  ["CC(C)(C)c1ccc(C/N=C(\\S)NCc2ccc(NS(C)(=O)=O)cc2F)cc1", "Transient receptor potential cation channel subfamily V member 1 (Rattus norvegicus)", 2.33],
  ["C[S+]([O-])c1cccc(C/N=C(\\S)NCc2ccc(C(C)(C)C)cc2)c1 (stereo not drawn)", "Transient receptor potential cation channel subfamily V member 1 (Rattus norvegicus)", 3.56],
  ["CC(C)(C)c1ccc(C/N=C(\\S)NCCc2ccc(NS(C)(=O)=O)cc2)cc1", "Transient receptor potential cation channel subfamily V member 1 (Rattus norvegicus)", 3.59],
  ["CC(C)(C)c1ccc(C/N=C(\\S)NCc2ccc(NS(C)(=O)=O)nc2)cc1", "Transient receptor potential cation channel subfamily V member 1 (Rattus norvegicus)", 3.61],
  ["CC(C)(C)c1ccc(C/N=C(\\S)NCc2ccc(NS(=O)(=O)CCN=[N+]=[N-])cc2)cc1", "Transient receptor potential cation channel subfamily V member 1 (Rattus norvegicus)", 2.16],
  ["CC(C)(C)c1ccc(C/N=C(\\S)NCc2cccc(S(C)(=O)=O)c2)cc1", "Transient receptor potential cation channel subfamily V member 1 (Rattus norvegicus)", 3.00],
  ["C=CS(=O)(=O)Nc1ccc(CN/C(S)=N/Cc2ccc(C(C)(C)C)cc2)cc1", "Transient receptor potential cation channel subfamily V member 1 (Rattus norvegicus)", 2.36],
  ["CC(C)(C)c1ccc(C/N=C(\\S)NCc2ccc(NS(N)(=O)=O)cc2)cc1", "Transient receptor potential cation channel subfamily V member 1 (Rattus norvegicus)", 2.81],
  ["CC(C)(C)c1ccc(C/N=C(\\S)NCc2ccc(NS(C)(=O)=O)cc2C(F)(F)F)cc1", "Transient receptor potential cation channel subfamily V member 1 (Rattus norvegicus)", 2.64],
  ["CC(C)(C)c1ccc(C/N=C(\\S)Nc2ccc(NS(C)(=O)=O)cc2)cc1", "Transient receptor potential cation channel subfamily V member 1 (Rattus norvegicus)", 3.98],
  ["CC(C)(C)c1ccc(C/N=C(\\S)NCc2ccc(NS(C)(=O)=O)cc2Cl)cc1", "Transient receptor potential cation channel subfamily V member 1 (Rattus norvegicus)", 2.16]
]}
